Test: yeast display, Sf9 membrane polyspecificity reagent, FACS + sequencing; frameworks hold sequencing errors
EXPERIMENTAL READOUT: polyreactivity (PSR sort gate)

QVQLVESGAGLVQAGGSLRLSCAASGRTFWSYAMGWYRQAPGKERELVAAIRTSDGITYYADSVKGRFTISRDNAKNTVYLQMNSLKPEDTAVYYCAAENWYNYDYWGQGTQVSVSS	low polyreactivity
QVQLVESGGGLVQAGGSLRLSCAASGSISGYYVMGWYRQAQGKERELVAAITWRGGSTYYADSVKGRFTISRDNAKNTVYLQMNSLKPEDTAVYYCNKVPGRGSTFEYWGQGTQVTVSS	high polyreactivity
QVQLVESGGGLVQAGGSLRLSCAASGNTFYGYAMGWYRQAPGKERELVASITLSGDSTYYADSVKGRFTISRDNAKNTVYLQMNSLNPEETAVYYFNAQFTPRYWGGYDSWGQGTQVTVSS	low polyreactivity
QVQLVESGGGLVQAGGSLRLSCAASGRIFLHNAMGWYRQAPGKERELVAAITSGGNTNYADSVKGRFTISRDNAKNTVYLQMNSLKPEDTAVYYCATVGKVHHRLVAMDYWGQGTQVTVSS	low polyreactivity
QVQLVESGGGLVQAGGSLRLSCAASGSIFVGYAMGWYRQAPGKERELVAAISSNGGSTYYADSVKGRFTISRDNAKNTVYLQMNSLKPEDTAVYYCAKDYTYSFGRSLDYWGQGTQVTVSS	low polyreactivity

Dear colleague, could you send me polyreactivity (PSR sort gate) for each of the items below? Thanks.
1. QVQLVESGGGLVQAGGSLRLSCAASGSIFPVNAMGLYRQAPGKERELVAAINTSSGSTYYADSVKGRFTISRDNAKNTVYLQMNSLKPEDTAVYYCAAVYVASGYRYGYWGQGTQVTVSS
2. QVQLVESGGGLVQAGGSLRLSCAASGSTFRAYAMRWYRQAPGKETELVAAISSSGGSTYYADSVKGRFTISRDNAKKTVYLQMNSLKPEDTAVYYCAARGWWSRYGYWGQGTQVTVSS

Reply:
high polyreactivity
high polyreactivity

---

Test: yeast display, Sf9 membrane polyspecificity reagent, FACS + sequencing; frameworks hold sequencing errors
EXPERIMENTAL READOUT: polyreactivity (PSR sort gate)

Below are worked cases with known answers.
QDQLVESGGGLVQAGGSLRLSCAASGSIFPYNAMGWYRQAPGKERELVATISSGGSTNYADSVKGRFTISRDNAKNTVYLQMNSLKPEDTAVYYCAAVVIVFYYAPNYWGDIEYGYWGQGTQVTVSS	low polyreactivity
QVQLVESGGGLVQAGGSLRLSCAASGSIFSLYAMGWYRQAPGKERELVTAITSGGRTKYADSVKGRFTISRDNAKNTVYLQMNSLKPEDTAVYYCAARDDSEKRYLTQYAYNYWGQGTQVTVSS	low polyreactivity
QVQLVESGGGLVQAGGSLRLSCAASGRTFGPYARGWYIQAPGKERELVAAISWIGTSTYYADSVKGRFTISRDNAKNTVYLQMNSLKPEDTAVYYCAALEKNYTTKFYYWGQVTQVTVSS	high polyreactivity
QVQLVDSGGGLVQAGGSLRLSCAASGITFWSYAMGWYRPAPGKERELVAGISRRGGSTYYADSVKGRFTISRDNAKNTVYLQMNSLKPEDTAVYYCAARAYPTPVRSFLYTDIVYYWGQGTQVTVSS	high polyreactivity
QVQLVESGGGLVQAGGSLRLSCAASGIIFDYYAMGWYRQAPGKERELVAAITTSGGRTYYADSVKGRFTISRDNAKNTVNFQMNSLKPEDTAVYYCAASRPSPRPRYGYWGQGTQVTVSS	high polyreactivity
QVQLVESGGGLVQAGGSLRLSCAASGRTLGGYTMGWYRQAPGKERELVAAITTGGSTNYADSVKGRFTISRDNAKNTVYLQMNSLKPEDTAVYYCATELVFDKRYWYDYWGQGTQVTVSS	low polyreactivity

Dear colleague, could you send me polyreactivity (PSR sort gate) for each of the items below? Thanks.
1. QVQLVESGGGLVQAGGSLRLSCAASGSTFRYYAMGWYRQAPGKERELVATISSGGSTNYADSVKGRFTISRDNAKNTVYLQMNSLKPEDTAVYYCAAAYPQFWYWDYNYWGQGTQVTVSS
2. QVQLVESGGGLVQAGGSLRLSCAASGSTIYHYTMECYRQAPGKERELVAAITYSGGRTYYADSVKGRFTISRDNAKNTVYLQMNSLKPEDTAVYYCAATYSTPGAGYYHYWGQGTQVTVSS
3. QVQLVESGGGLVQAGGSLRLSCAASGFIFRYYAMGWYRQAPGKERELVAAISSRGSTYYADSVKGRFTISRDNAKNTVYLQMNRLKPEYTALYYCAARGGYRLRYIPYVRYDYWGQGTQLTVSS
4. QGQLVESGGGLVQAGGSLRLSCAASGITVGVYARGRYRQEPGKEREFVADIDRTGGSTYAVSVKGRFTISRDIAKNTVYLQMNSLKPEDTAVYYCAAGWGFRFYYWYWGQGTQVTVSS
5. QVQLVESGGGLVQAGGSLRLSCAASGSTFDYYTMGWYRQAPGKERELVAAISYSGSRTYYADSVKGRFTISRDNAKNTVYLQMNSLKPEDTAVYYCARVASSVWYKQEYSYYNFDYWGQGTQVTVSS

Reply:
["high polyreactivity", "high polyreactivity", "high polyreactivity", "high polyreactivity", "high polyreactivity"]

---

Assay: yeast display, Sf9 membrane polyspecificity reagent, FACS + sequencing; frameworks hold sequencing errors
EXPERIMENTAL READOUT: polyreactivity (PSR sort gate)

Below are worked cases with known answers.
QVQLVESGGGLVQAGGTLRLSCAASGIIFDQNAMGWYRQAPGKERELVAAISWSGGGTYYADSVKGRFTISRDNAKNTVYLQMNSLKPEDTAVSYCAVEDMSHAYVQHYRFGYGYWGQGTQVTVSS	low polyreactivity
QVQLVESGGGLVQAGGSLRLSCAASGSIFARYAMGWYRQAPGKERELVAAISSNSASTYYADSVKGRFTISRDNAKNTVYLQMNSLKPEDTAVYYCATAYRSYWLNDYWGQGTQVTVSS	low polyreactivity
QVQLVESGGGLVQAGGRLRLSSDASGLTFPTNAMGRYRQAHGKETEFVAAITSRGGTTYYADSVKGRFTISRDNAKNTVYLQMNSLKPEDTAVYYCAALSVTIYQSYRYGYWGQGTQVTVSS	low polyreactivity
QVQLVESGGGLVQAGGSLRLSCAASGSTFPSNVMGWYRQAPGKERELVAAITWSGGRTYYADSVKGRFTISRDNAKNTVYLQMNSLKPEDTAVYYCAVRSSYVRYDYWGKGTQVTVSS	high polyreactivity

Let us examine a further case.
Task item: What polyreactivity (PSR sort gate) value was documented for this sequence, `QVQLVESGGGLVQAGGSLRLSCAASRRTYKYNAMGWYRQAPGKEREVVAAISRSGGSTYYADSVKGRFTISRDNAKNTVYLQMNILKPEDTAVYDCAVSYRPGGYRRHFRYVYWGQGTQVTVSS` ?
Reply: high polyreactivity

---

Assay: yeast display, Sf9 membrane polyspecificity reagent, FACS + sequencing; frameworks hold sequencing errors
EXPERIMENTAL READOUT: polyreactivity (PSR sort gate)

QVQLVESGGGLVQAGGSLRLSCAASGSIFTYNVMGWYRQAPGKERELVASISWSGGRTYYADSVKGRFTISRDYAKNTVYLQMNSLKPEDTAVYYCNNVRPPVYFPNRDYWGQGTQVNVSS	low polyreactivity
QVQLVESGGGLVQAGGRLRLSCAASGRTFAVYDMGWYIQAPGKERELVAAITYGGGRTYYADSVKGRFTISRDYAKNTVYLQMISLKPEDTSVYYCAADYYGTDYDYWGQGTQVTVSS	low polyreactivity
QVQLVESGGGLVQAGGSLRLSCAASGRTFYYYAMGWYRQAPGKERELVAAISWSGGRTYYADSVKGRFTISRDNAKNTVYLQMNSLKPEDTAVYYCAASSTGYGGSTYYYWGQGTQVTVSS	low polyreactivity

---

Test: yeast display, Sf9 membrane polyspecificity reagent, FACS + sequencing; frameworks hold sequencing errors
EXPERIMENTAL READOUT: polyreactivity (PSR sort gate)

Below are worked cases with known answers.
QVQLVESGGGLVQAGGSLRLSCAASGGTFAVYAMGWYRQAPGKERELVAAIDSGGRTNYADSVKGRFTISRDNAKNTVYLQMNSLKPEDTAVYYCAADGGGQYVRYDYWGQGTQVTVSS	high polyreactivity
QVQIVESGGGLVQAGGSLRLSCASSGSTMPAYTMGWYRQAPGKERELVADISRRGGSTYYADSVKGRFTISRDNAKNNVYLHMNSLKPEDTPVYYCATTAKKSYDYWGQGTHVTVSS	high polyreactivity
QVQLVESGGCLVQEGGSLRLSCAASGSIFHDYIMGWYRQAPGKEMELVAAMSSGGSTYYADSVKGRFTISRDNAKNTVYLQMNSLKPEDTEVYYCAAKSRSQVYPHYYWGQGTQVTVSS	low polyreactivity
QVQLVESGGGLVQAGGSLRLSCAASGITLSRNAMGWYRQAPGKERELVAAITWRTDRTYYADSVKGRFTISRDNAKNTVYLQMNSLKPEDTAVYYCAARTTVSSARYDYWGQGTQVTVSS	high polyreactivity

Let us examine a further case.
Task item: What polyreactivity (PSR sort gate) value was documented for this sequence, `QVQLVESGGGLVQAGGSLRLSCAASGFILDYNAMGWYRQAPGKERELVAAITNGGITYYADSVKGRFTISRDNAQNTVYLQMNSLKPEDTAVYYCAADNDTDHSSATYGYDYWGQGTQVTVSS` ?
Reply: low polyreactivity
